Biological target: T1, Cynomolgus Monkey c-Met-Flis-Fc ECD (cynomolgus monkey)
T1 construct: also called Cynomolgus Monkey cMet-ECD-Fc-Flis; cynomolgus monkey c-Met ECD
T1 sequence (chain, as listed by the source limits assumed): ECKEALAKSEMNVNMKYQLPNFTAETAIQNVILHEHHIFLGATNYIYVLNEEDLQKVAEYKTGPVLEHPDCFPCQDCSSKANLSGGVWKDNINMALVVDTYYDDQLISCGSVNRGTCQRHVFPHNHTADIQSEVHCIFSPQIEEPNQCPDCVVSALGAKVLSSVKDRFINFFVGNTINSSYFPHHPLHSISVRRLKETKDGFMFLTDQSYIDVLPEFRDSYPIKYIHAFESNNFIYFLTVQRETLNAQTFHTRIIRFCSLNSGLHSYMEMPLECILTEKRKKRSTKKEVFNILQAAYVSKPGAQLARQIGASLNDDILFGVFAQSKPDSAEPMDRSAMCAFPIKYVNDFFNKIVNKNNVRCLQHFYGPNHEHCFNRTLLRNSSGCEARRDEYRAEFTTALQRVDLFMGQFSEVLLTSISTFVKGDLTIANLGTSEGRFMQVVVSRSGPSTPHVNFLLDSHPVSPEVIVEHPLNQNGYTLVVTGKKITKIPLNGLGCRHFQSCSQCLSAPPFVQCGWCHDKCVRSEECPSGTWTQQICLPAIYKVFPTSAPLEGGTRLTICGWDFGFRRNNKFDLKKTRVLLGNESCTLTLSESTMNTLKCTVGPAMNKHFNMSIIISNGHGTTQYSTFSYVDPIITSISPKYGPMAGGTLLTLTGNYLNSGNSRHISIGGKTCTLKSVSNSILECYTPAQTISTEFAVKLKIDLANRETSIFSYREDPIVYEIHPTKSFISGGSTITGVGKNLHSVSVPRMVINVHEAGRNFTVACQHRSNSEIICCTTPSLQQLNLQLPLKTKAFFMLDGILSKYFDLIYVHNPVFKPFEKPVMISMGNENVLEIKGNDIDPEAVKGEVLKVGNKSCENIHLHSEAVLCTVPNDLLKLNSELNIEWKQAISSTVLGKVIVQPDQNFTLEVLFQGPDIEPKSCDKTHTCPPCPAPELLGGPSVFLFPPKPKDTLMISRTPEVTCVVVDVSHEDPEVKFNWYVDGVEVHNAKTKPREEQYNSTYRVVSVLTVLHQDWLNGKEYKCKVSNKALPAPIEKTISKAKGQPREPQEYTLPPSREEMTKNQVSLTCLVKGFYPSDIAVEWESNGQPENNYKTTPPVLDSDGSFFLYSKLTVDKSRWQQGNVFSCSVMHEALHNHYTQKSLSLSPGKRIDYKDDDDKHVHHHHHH
Assay: SPR Biacore, antibody captured, ECD-Fc analyte, 1:1 model
Exercise: for every item that follows, state its recorded pKd.
// pKd here means minus log10 of the molar concentration (mol/L)

Enquiry: # pKd lookup, item D11-8B8 (antibody, human IgG2, kappa, V domains shown, Human engineered IgG2, kappa; expressed in HEK293 EBNA cells; also called Mab D11-8B8) VH: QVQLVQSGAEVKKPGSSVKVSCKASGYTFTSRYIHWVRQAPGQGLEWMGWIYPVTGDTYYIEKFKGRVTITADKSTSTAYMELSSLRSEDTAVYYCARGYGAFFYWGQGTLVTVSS VL: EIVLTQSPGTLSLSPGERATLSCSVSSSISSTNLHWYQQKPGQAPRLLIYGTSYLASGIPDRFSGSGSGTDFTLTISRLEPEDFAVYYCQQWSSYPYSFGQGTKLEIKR
Return: 8.54

Enquiry: Give the measured pKd of D11-C27G3 (antibody, human IgG2, kappa, V domains shown, Human engineered IgG2, kappa; also called D11-27G3) VH: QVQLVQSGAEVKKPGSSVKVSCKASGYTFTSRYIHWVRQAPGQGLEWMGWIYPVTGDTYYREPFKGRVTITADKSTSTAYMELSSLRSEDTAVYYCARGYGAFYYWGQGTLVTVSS VL: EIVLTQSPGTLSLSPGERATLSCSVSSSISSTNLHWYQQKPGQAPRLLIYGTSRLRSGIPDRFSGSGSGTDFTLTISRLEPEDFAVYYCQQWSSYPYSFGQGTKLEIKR .
Return: 8.19

Enquiry: Could you share which pKd value was measured for C8-6 (antibody, human IgG2, kappa, V domains shown, Called IgG4, kappa; also called Mab C8-6) VH: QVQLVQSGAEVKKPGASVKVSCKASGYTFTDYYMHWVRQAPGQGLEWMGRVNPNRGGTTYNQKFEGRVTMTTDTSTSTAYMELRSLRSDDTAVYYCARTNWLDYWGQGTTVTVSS VL: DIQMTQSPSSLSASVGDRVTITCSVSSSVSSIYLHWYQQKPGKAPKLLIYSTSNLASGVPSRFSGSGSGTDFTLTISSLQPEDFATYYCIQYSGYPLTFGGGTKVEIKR ?
Return: 8.44

Enquiry: Please give the measured pKd for this binder: D11-S17Y (antibody, human IgG2, kappa, V domains shown, Human engineered IgG2, kappa) VH: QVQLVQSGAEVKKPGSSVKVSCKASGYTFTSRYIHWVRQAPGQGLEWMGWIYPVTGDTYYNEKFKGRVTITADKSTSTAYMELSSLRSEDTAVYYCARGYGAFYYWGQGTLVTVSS VL: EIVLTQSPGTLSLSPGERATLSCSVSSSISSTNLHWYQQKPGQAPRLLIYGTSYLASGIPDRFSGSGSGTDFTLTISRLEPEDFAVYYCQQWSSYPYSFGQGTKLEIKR
Return: 8.29
